Molecular target: Nitric oxide synthase, inducible (Mus musculus, UniProt P29477); further: in other assays of this panel Not Active means under 50% inhibition at 10 µM;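 further: inhibition of iNOS enzyme activity measured with L-arginine as substrate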
Sequence (P29477 whole entry): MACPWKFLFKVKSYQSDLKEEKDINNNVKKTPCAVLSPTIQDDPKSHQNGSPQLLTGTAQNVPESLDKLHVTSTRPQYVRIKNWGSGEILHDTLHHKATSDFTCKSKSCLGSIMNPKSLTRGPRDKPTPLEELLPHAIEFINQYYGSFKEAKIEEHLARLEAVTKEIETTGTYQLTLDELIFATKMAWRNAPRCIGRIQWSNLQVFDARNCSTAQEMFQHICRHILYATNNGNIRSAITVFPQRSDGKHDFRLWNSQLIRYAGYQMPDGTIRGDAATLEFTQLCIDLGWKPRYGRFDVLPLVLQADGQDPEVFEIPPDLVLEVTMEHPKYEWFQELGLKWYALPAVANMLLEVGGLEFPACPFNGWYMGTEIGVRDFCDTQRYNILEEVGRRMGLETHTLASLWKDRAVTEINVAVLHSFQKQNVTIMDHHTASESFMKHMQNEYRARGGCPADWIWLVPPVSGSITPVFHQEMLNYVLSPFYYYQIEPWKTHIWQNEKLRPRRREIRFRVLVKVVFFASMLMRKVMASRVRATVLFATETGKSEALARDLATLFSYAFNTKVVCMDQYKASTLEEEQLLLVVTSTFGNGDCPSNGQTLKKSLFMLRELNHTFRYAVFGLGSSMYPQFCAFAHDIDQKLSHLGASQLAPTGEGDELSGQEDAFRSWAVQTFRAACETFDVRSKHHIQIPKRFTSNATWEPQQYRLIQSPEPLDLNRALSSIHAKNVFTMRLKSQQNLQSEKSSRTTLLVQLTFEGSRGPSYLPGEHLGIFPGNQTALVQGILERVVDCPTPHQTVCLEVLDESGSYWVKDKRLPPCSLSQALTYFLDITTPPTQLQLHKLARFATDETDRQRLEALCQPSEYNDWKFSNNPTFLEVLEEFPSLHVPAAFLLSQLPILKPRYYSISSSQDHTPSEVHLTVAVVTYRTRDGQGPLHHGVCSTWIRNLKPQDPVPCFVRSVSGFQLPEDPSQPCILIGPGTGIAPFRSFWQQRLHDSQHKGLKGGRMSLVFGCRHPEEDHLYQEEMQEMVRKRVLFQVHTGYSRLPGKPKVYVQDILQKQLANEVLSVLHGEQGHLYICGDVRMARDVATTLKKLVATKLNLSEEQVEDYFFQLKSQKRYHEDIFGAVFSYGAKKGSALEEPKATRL
Set-up: species or system Escherichia coli
PROPERTY NAME: IC50

1. O=C1c2ccccc2C(=O)C1c1ccccc1 | Not Active
2. CC(C)Cn1cnc2c(N)nc3ccccc3c21 | Not Active
3. c1ccc2sc(SSc3nc4ccccc4s3)nc2c1 [BENZOTHIAZYL DISULFIDE] | Not Active
4. CCC(C)(C)C(=O)O[C@H]1C[C@@H](C)C=C2C=C[C@H](C)[C@H](CC[C@@H]3C[C@@H](O)CC(=O)O3)[C@H]21 | Not Active
5. C1CCN2C[C@@H]3C[C@@H](CN4CCCC[C@@H]34)[C@H]2C1 | Not Active
6. ClC1=C(Cl)[C@]2(Cl)[C@@H]3[C@@H]4C[C@@H]([C@H]5O[C@@H]45)[C@@H]3[C@@]1(Cl)C2(Cl)Cl | Not Active
7. NS(=O)(=O)c1cc(C(=O)O)c(NCc2ccco2)cc1Cl [FUROSEMIDE] | Not Active
8. O=c1[nH]cnc2c1ncn2[C@H]1CC[C@@H](CO)O1 | Not Active
9. O=C1CN(/N=C/c2ccc([N+](=O)[O-])o2)C(=O)N1 | Not Active
10. CC#C[C@]1(O)CC[C@H]2[C@@H]3CCC4=CC(=O)CCC4=C3[C@@H](c3ccc(N(C)C)cc3)C[C@@]21C | Not Active
11. Cc1cccc(C)c1NC(=O)C(C)N (configuration not stated) [TOCAINIDE] | Not Active
12. CC(O)C(=O)O (configuration not stated) | Not Active
13. COc1cc(NC(C)CCCN)c2ncccc2c1 (configuration not stated) | Not Active
14. COc1ccccc1OCCNCC(O)COc1cccc2[nH]c3ccccc3c12 (configuration not stated) | Not Active
15. CN(CCOc1ccc(C[C@H](Nc2ccccc2C(=O)c2ccccc2)C(=O)O)cc1)c1ccccn1 | Not Active
16. CCN1C[C@]2(COC)[C@H](O)C[C@H](OC)[C@@]34[C@@H]5C[C@@]6(O)[C@H](OC(=O)c7ccccc7)[C@@H]5[C@@](OC(C)=O)([C@@H]([C@H](OC)[C@H]23)[C@@H]14)[C@@H](O)[C@@H]6OC | Not Active
17. CCN1CCN(c2cc3c(cc2F)c(=O)c(C(=O)O)cn3C2CC2)CC1 | Not Active
